Entries annotated with measured pIC50
system: MDA-MB-231; test: Growth inhibition of human MDA-MB-231 cells after 48 hrs by MTS assay; format: functional, cell-based; settings: MDA-MB-231, 48 h
pIC50: −log10 of the molar value.
ASSAY READOUT: pIC50

INSERT INTO assay_data (compound, assay_readout, comparison_sign, recorded_number) VALUES
  ('C[C@]1(NC(=O)CCl)C2CC[C@@]3(C)N=C(CCl)C1CC3C2 (relative stereo)', 'pIC50', '=', 5.10),
  ('COC(=O)C[C@H]1C(=O)C=C2C3CC4CC(CC[C@@]4(C)N21)[C@]3(C)NC(C)=O (some centres not stated)', 'pIC50', '<', 4.30);

====

tested on: MOLT-4; assay: Growth inhibition of human MOLT4 cells after 48 hrs by SRB assay; assay type: functional, cell-based; details: MOLT-4, 48 h
pIC50: −log10 of the molar value.
ASSAY READOUT: pIC50

INSERT INTO measurements (compound, assay_readout, recorded_number) VALUES
  ('COC(=O)/C=C1\C(=O)C=C2C3CC4CC(CCC4(C)N21)C3(C)NC(C)=O (stereo unspecified)', 'pIC50', 5.62);

====

tested on: COLO 205; assay: Growth inhibition of human COLO205 cells after 48 hrs by SRB assay; type: functional, cell-based; details: COLO 205, 48 h
ASSAY READOUT: IC50 (µM)

INSERT INTO measurements (compound, quantity_unit, recorded_number) VALUES
  ('COC(=O)/C=C1\C(=O)C=C2C3CC4CC(CCC4(C)N21)C3(C)NC(C)=O (stereo unspecified)', 'µM', 7.8);

====

test system: MDA-MB-435; test: Growth inhibition of human MDA-MB-435 cells after 48 hrs by SRB assay; type: functional, cell-based; conditions: MDA-MB-435, 48 h
ASSAY READOUT: IC50 (µM)

INSERT INTO results (molecule, assay_readout, recorded_number) VALUES
  ('COC(=O)/C=C1\C(=O)C=C2C3CC4CC(CCC4(C)N21)C3(C)NC(C)=O (stereo unspecified)', 'IC50', 5.9);

====

test system: NCI-H522; test: Growth inhibition of human NCI-H522 cells after 48 hrs by SRB assay; type: functional, cell-based; details: NCI-H522, 48 h
ASSAY READOUT: IC50 (nM)

INSERT INTO measurements (compound, quantity_unit, recorded_number) VALUES
  ('COC(=O)/C=C1\C(=O)C=C2C3CC4CC(CCC4(C)N21)C3(C)NC(C)=O (stereo unspecified)', 'nM', 2000);

====

tested on: DU-145; experiment: Growth inhibition of human DU145 cells after 48 hrs by SRB assay; assay type: functional, cell-based; conditions: DU-145, 48 h
ASSAY READOUT: IC50 (µM)

INSERT INTO assay_data (compound, study_system, recorded_number) VALUES
  ('COC(=O)/C=C1\C(=O)C=C2C3CC4CC(CCC4(C)N21)C3(C)NC(C)=O (stereo unspecified)', 'DU-145', 16.9);

====

system: MDA-MB-231; assay: Growth inhibition of human MDA-MB-231 cells after 48 hrs by SRB assay; format: functional, cell-based; details: MDA-MB-231, 48 h
ASSAY READOUT: IC50 (µM)

INSERT INTO assay_data (compound, assay_readout, recorded_number) VALUES
  ('COC(=O)/C=C1\C(=O)C=C2C3CC4CC(CCC4(C)N21)C3(C)NC(C)=O (stereo unspecified)', 'IC50', 38.9);

Cited source: ChEMBL document CHEMBL4257458
